Tested on: Escherichia coli TOP10;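 also: peptides expressed intracellularly from a pBAD plasmid library in pooled LB shake-flask culture, induced with 0.3% L-arabinose, DNA abundance read by NGS, three biological replicates, DESeq2 with apeglm shrinkage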
Test: shrunken log2 fold change of peptide-encoding DNA abundance (4.5 h post-induction vs induction); higher = less antimicrobial activity (less host growth inhibition)
Settings: time post-induction: 4.5 h; library: site-saturation at positions 5, 18, 19, 20
Reported Property: shrunken log2 fold change
Field format: numeric only.

Some solved entries appear below for comparison.
RRIRPRPPRLPRPRPRPGGVPRP : 0.567
RRIRARPPRLPRPRPRPICGPRP : 0.248
RRIRGRPPRLPRPRPRPNIEPRP : 0.51
RRIRQRPPRLPRPRPRPQDDPRP : -0.0165
RRIRERPPRLPRPRPRPWGHPRP : -0.118

Which shrunken log2 fold change value is on record for RRIRYRPPRLPRPRPRPSRKPRP ?
0.0647

Which shrunken log2 fold change value is on record for RRIRFRPPRLPRPRPRPRDIPRP ?
-0.11
